Tested on: Blumeria graminis f. sp. tritici
Test: Test C: wheat powdery mildew, preventive spray on wheat seedlings
Type: in vivo
Settings: 50 ppm, rated after 8 days, 100 = 100% disease control, 0 = no control
Provide the recorded Test C disease control rating (wheat powdery mildew) for the entries that follow.
# number only, unit % dropped from output

Query :: Specify Test C disease control rating (wheat powdery mildew) for `Cc1nn(C)c(Nc2ccc(F)cc2[N+](=O)[O-])c1-c1c(Cl)cccc1Cl` , system Blumeria graminis f. sp. tritici.
Result :: 93

Query :: Specify Test C disease control rating (wheat powdery mildew) for `COc1cc(F)c(-c2c(C)nn(C)c2Nc2c(Cl)cc(Cl)cc2[N+](=O)[O-])c(F)c1` , system Blumeria graminis f. sp. tritici.
Result :: 58

Query :: Specify Test C disease control rating (wheat powdery mildew) for `CCc1nn(C)c(Nc2c(F)cc(C)cc2[N+](=O)[O-])c1-c1ccc(F)cc1Cl` , system Blumeria graminis f. sp. tritici.
Result :: 100

Query :: Specify Test C disease control rating (wheat powdery mildew) for `Cc1nn(C)c(Nc2c(Cl)cc(Cl)cc2[N+](=O)[O-])c1-c1ccc(Cl)cc1Cl` , system Blumeria graminis f. sp. tritici.
Result :: 0

Query :: Specify Test C disease control rating (wheat powdery mildew) for `Cc1nn(C)c(Nc2cccc(Cl)c2[N+](=O)[O-])c1-c1ccc(F)cc1Cl` , system Blumeria graminis f. sp. tritici.
Result :: 13

Query :: Specify Test C disease control rating (wheat powdery mildew) for `COc1ccc(Nc2c(-c3ccc(F)cc3F)c(C)nn2C)c([N+](=O)[O-])c1` , system Blumeria graminis f. sp. tritici.
Result :: 84

Query :: Specify Test C disease control rating (wheat powdery mildew) for `COc1cc(F)c(-c2c(C)nn(C)c2Nc2c(F)cccc2[N+](=O)[O-])c(F)c1` , system Blumeria graminis f. sp. tritici.
Result :: 99

Query :: Specify Test C disease control rating (wheat powdery mildew) for `Cc1nn(C)c(Nc2c(F)cc(Br)cc2[N+](=O)[O-])c1-c1ccc(F)cc1F` , system Blumeria graminis f. sp. tritici.
Result :: 100

Query :: Specify Test C disease control rating (wheat powdery mildew) for `Cc1cccc([N+](=O)[O-])c1Nc1c(-c2c(F)cc(F)cc2Cl)c(C)nn1C` , system Blumeria graminis f. sp. tritici.
Result :: 99

Query :: Specify Test C disease control rating (wheat powdery mildew) for `Cc1nn(C)c(Nc2c(F)cccc2[N+](=O)[O-])c1-c1ccc(Cl)cc1Cl` , system Blumeria graminis f. sp. tritici.
Result :: 97

Query :: Specify Test C disease control rating (wheat powdery mildew) for `Cc1nn(C)c(Nc2ccc(OC(C)C)cc2[N+](=O)[O-])c1-c1ccc(F)cc1Cl` , system Blumeria graminis f. sp. tritici.
Result :: 72

Query :: Specify Test C disease control rating (wheat powdery mildew) for `Cc1nn(C)c(Nc2c(F)cc(F)cc2[N+](=O)[O-])c1-c1ccc(F)cc1Br` , system Blumeria graminis f. sp. tritici.
Result :: 100

Query :: Specify Test C disease control rating (wheat powdery mildew) for `COc1ccc(-c2c(C)nn(C)c2Nc2c(F)cc(F)cc2[N+](=O)[O-])c(Cl)c1` , system Blumeria graminis f. sp. tritici.
Result :: 98

Query :: Specify Test C disease control rating (wheat powdery mildew) for `Cc1cccc([N+](=O)[O-])c1Nc1c(-c2ccc(Cl)cc2Cl)c(C)nn1C` , system Blumeria graminis f. sp. tritici.
Result :: 35

Query :: Specify Test C disease control rating (wheat powdery mildew) for `Cc1nn(C)c(Nc2ccc(OCC#N)cc2[N+](=O)[O-])c1-c1ccc(F)cc1Cl` , system Blumeria graminis f. sp. tritici.
Result :: 87

Query :: Specify Test C disease control rating (wheat powdery mildew) for `Cc1nn(C)c(Nc2c(F)cccc2[N+](=O)[O-])c1-c1c(F)cc(F)cc1F` , system Blumeria graminis f. sp. tritici.
Result :: 100
